# TARGET: M2 muscarinic receptor (Rattus norvegicus)
# Construct: Submandibular glands and heart were isolated and placed in ice cold homogenizing buffer; from tissue; host or cells: rat heart membrane homogenate
# Sequence (P10980 whole entry): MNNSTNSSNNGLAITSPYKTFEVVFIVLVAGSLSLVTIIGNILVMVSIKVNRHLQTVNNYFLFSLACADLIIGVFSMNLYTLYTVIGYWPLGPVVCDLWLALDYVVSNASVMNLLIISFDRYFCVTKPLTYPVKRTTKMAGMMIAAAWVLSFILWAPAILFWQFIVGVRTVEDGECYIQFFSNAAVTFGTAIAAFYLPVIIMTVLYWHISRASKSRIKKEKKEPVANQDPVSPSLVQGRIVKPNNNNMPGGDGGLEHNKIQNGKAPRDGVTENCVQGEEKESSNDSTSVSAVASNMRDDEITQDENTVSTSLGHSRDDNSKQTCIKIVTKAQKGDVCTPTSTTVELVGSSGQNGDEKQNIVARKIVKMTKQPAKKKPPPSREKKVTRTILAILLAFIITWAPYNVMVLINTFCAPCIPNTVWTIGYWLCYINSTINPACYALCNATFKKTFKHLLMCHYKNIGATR
# EXPERIMENT SUMMARY: Radioligand binding assay, [3H]-N-methyl scopolamine, rat heart membranes
# SETUP CONDITIONS: [3H]NMS displacement, Ki by Cheng & Prusoff, read-out: Receptor Binding Assay M2 pKi (converted)
Please go through the items and note down their Ki.

COMPOUND: Cc1ccc(O)c(C(CC(=O)N[C@H]2[C@@H]3CN(Cc4ccccc4)C[C@@H]32)c2ccccc2)c1 (stereo partly drawn)
MEASUREMENT LABEL: Ki
RESULT: > 1 µM

COMPOUND: COc1ccc(C)cc1C(CC(=O)NCC(=O)N[C@H]1[C@@H]2CN(Cc3ccccc3)C[C@@H]21)c1ccccc1 (stereo partly drawn)
MEASUREMENT LABEL: Ki
RESULT: > 1 µM

## Task Please report the recorded Ki for COc1ccc(C)cc1C(CC(=O)OCC(=O)NC1C2CNCC21)c1ccccc1 (stereo not drawn) .
## Result > 1 µM

Origin of the recorded values: patent US7517905B2
